tested on: SH-SY5Y cells; test: sAPPβ release assay; details: Homo sapiens, SH-SY5Y, read-out: IC50 Cell (sAPPβ release, nM), SH-SY5Y cells, compounds incubated 16-17 h
measurement.kind: IC50 (nM)

Worked examples follow.
[2H]C([2H])([2H])O[C@@H]1CC[C@]2(Cc3ccc(-c4cnccn4)cc3[C@]23N=C(N)OC3([2H])[2H])C[C@H]1C	17
[2H]C1([2H])OC(N)=N[C@]12c1cc(-c3cncc(C(F)(F)F)c3)ccc1C[C@]21CC[C@@H](OC)[C@H](C)C1	2.6

[P] CC#Cc1cncc(-c2ccc3c(c2)C2(COC(N)=N2)[C@]2(CC[C@H](OC)CC2)C3)c1 (stereo partly shown)
[Q] COCCCC1(C)Cc2ccc(-c3cc(C#N)cc(OC)c3)cc2C12COC(N)=N2 (stereo not shown)
*Q* Two entries are listed, P and Q . Which one carries the higher IC50? Mark your answer with the label of the selected entry.
*A* Q
(Q: 450 nM, P: 1.1 nM)

###

target: Human BACE1 (Homo sapiens, UniProt P56817)
Sequence (P56817 22-460): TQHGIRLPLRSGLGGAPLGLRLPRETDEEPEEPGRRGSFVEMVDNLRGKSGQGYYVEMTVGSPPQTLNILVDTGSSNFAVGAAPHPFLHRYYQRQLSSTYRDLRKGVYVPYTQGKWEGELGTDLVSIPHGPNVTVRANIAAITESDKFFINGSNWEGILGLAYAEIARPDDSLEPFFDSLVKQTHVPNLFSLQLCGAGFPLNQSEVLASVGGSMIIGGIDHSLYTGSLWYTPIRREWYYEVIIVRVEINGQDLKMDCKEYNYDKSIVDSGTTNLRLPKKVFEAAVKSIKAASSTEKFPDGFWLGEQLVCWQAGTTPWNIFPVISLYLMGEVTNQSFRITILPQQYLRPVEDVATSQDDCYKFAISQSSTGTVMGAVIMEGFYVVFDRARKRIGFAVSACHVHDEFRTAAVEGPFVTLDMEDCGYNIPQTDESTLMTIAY
measurement.kind: IC50 (nM)

Worked examples follow.
[2H]C1([2H])OC(N)=N[C@]12c1cc(C#CC(C)C)ccc1C[C@@]21CC[C@H](O)[C@@H](C)C1 (racemic)	266
[2H]C1([2H])OC(N)=N[C@]12c1cc(-c3ccncc3)ccc1C[C@@]21CC[C@H](OC)[C@@H](C)C1	2030

[I] [2H]C1([2H])OC(N)=NC12c1cc(-c3cncc(C)c3)ccc1C[C@@]21CC[C@H](OC)[C@@H](C)C1 (some centres unmarked)
[II] CO[C@H]1CC[C@]2(CC1)Cc1ccc(-c3cncc(C(F)(F)F)c3)cc1C21COC(N)=N1 (some centres unmarked)
*Q* Kindly compare I with II and tell me which has the lower IC50 figure. Mark your answer with the label of the selected entry.
*A* I
(I: 67 nM, II: 307 nM)

###

tested on: SH-SY5Y cells; experiment: sAPPβ release assay; conditions: Homo sapiens, SH-SY5Y, read-out: IC50 Cell (sAPPβ release, nM), SH-SY5Y cells, compounds incubated 16-17 h
Counter-ions that a name gives are not always drawn.
measurement.kind: IC50 (nM)

[2H]C1([2H])OC(N)=N[C@]12c1cc(C#CC(C)C)ccc1C[C@@]21CC[C@H](O)[C@@H](C)C1 (racemic)	0.9
[2H]C1([2H])OC(N)=N[C@]12c1cc(C#N)ccc1C[C@]21CC[C@@H](OC)[C@H](C)C1	13
[2H]C1([2H])OC(N)=NC12c1cc(/C(C)=N/OCCC(F)(F)F)ccc1C[C@]21CC[C@@H](OC)CC1 (stereo partly shown)	206

[A] CO[C@H]1CC[C@]2(CC1)Cc1ccc(-c3cncc(C#N)c3)cc1C21COC(N)=N1 (stereo partly shown)
[B] [2H]C1([2H])OC(N)=N[C@]12c1cc(-c3cncc(C4CC4)c3)ccc1C[C@]21CC[C@@H](OC)[C@H](C)C1 [Compound 1, formate Salt]
*Q* Two entries are listed, A and B . Which one carries the higher IC50? Mark your answer with the label of the selected entry.
*A* A

[P] [2H]C1([2H])OC(N)=NC12c1cc(/C=N/OCC)ccc1C[C@]21CC[C@@H](OC)CC1 (stereo partly shown)
[Q] [2H]C([2H])([2H])O[C@@H]1CC[C@]2(Cc3ccc(-c4cccnc4F)cc3[C@]23N=C(N)OC3([2H])[2H])C[C@H]1C
*Q* Two entries are listed, P and Q . Which one carries the higher IC50? Mark your answer with the label of the selected entry.
*A* P

###

Here we list molecules with their recorded pIC50 when tested on Human BACE1 (Homo sapiens).
pIC50: −log10 of the molar value.
measurement.kind: pIC50

Worked examples follow.
[2H]C1([2H])OC(N)=N[C@]12c1cc(-c3cc(C#N)cc(OC)c3)ccc1C[C@@]21CC[C@H](OC)[C@@H](C)C1	8.14
[2H]C1([2H])OC(N)=N[C@]12c1cc(-c3cncnc3)ccc1C[C@]21CC[C@@H](OC)CC1	6.54

[P] [2H]C1([2H])OC(N)=NC12c1cc(-c3cc(C#N)cc(OC)c3)ccc1C[C@]21CC[C@@H](O)[C@H](C)C1 (stereo partly shown)
[Q] [2H]C1([2H])OC(N)=N[C@]12c1cc(-c3cccnc3)ccc1C[C@@]21CC[C@H](OC)[C@@H](C)C1
[R] [2H]C1([2H])OC(N)=N[C@]12c1cc(-c3cccc(Cl)c3)ccc1C[C@@]21CC[C@H](OC)[C@@H](C)C1
[S] [2H]C1([2H])OC(N)=NC12c1cc(-c3ccnc(O)c3)ccc1C[C@@]21CC[C@H](OC)[C@@H](C)C1 (stereo partly shown)
*Q* Arrange the 4 molecules from largest to smallest pIC50. Rank them, then answer with their labels in that order.
*A* R, Q, P, S

###

target: Human BACE2 (Homo sapiens, UniProt Q9Y5Z0); construct: the soluble part of the human β-Secretase2 (AA1-AA473) was cloned using BACE2(1-473)-(AVT)-Fc-pDEST12.2 mammalian expression vector; AVT linker (C); made in house; assay: TR-FRET assay; type: biochemical; details: enzyme 2.7 μg/mL, substrate 100 nM, pH4.5
Sequence (Q9Y5Z0 21-473): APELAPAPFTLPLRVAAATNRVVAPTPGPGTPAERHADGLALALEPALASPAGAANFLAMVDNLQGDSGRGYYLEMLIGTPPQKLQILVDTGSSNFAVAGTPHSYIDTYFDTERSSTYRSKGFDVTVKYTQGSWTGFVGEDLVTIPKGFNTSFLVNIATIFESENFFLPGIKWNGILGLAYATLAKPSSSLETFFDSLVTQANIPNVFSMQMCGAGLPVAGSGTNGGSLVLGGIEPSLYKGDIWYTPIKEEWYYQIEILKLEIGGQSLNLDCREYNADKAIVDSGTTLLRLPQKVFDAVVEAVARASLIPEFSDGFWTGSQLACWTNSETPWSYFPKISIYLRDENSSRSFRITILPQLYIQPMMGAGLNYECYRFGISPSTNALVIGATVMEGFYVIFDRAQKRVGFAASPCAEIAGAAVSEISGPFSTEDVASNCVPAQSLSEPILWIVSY
pIC50: −log10 of the molar value.
measurement.kind: pIC50

[a] COCCCC1(C)Cc2ccc(-c3cc(C#N)cc(OC)c3)cc2C12COC(N)=N2 (stereo not drawn) [Compound 88]
[b] [2H]C1([2H])OC(N)=N[C@]12c1cc(-c3ccnnc3)ccc1C[C@@]21CC[C@H](OC)[C@@H](C)C1 [Compound 115]
*Q* Kindly compare a with b and tell me which has the lower pIC50 figure. Mark your answer with the label of the selected entry.
*A* b

###

system: SH-SY5Y cells; experiment: sAPPβ release assay; conditions: Homo sapiens, SH-SY5Y, read-out: IC50 Cell (sAPPβ release, nM), SH-SY5Y cells, compounds incubated 16-17 h
measurement.kind: IC50 (nM)

[A] [2H]C1([2H])OC(N)=N[C@]12c1cc(-c3ccncc3)ccc1C[C@@]21CC[C@H](OC)[C@@H](C)C1
[B] [2H]C1([2H])OC(N)=N[C@]12c1cc(-c3cc(F)cnc3F)ccc1C[C@]21CC[C@@H](OC)[C@H](C)C1
[C] [2H]C1([2H])OC(N)=NC12c1cc(-c3cc(C#N)cc(OC)c3)ccc1C[C@]21CC[C@@H](O)[C@H](C)C1 (stereo partly shown)
*Q* List from greatest to least IC50. Rank them, then answer with their labels in that order.
*A* C, A, B

###

test system: SH-SY5Y cells; experiment: sAPPβ release assay; conditions: Homo sapiens, SH-SY5Y, read-out: IC50 Cell (sAPPβ release, nM), SH-SY5Y cells, compounds incubated 16-17 h
measurement.kind: IC50 (nM)

Worked examples follow.
[2H]C1([2H])OC(N)=N[C@]12c1cc(-c3cccnc3F)ccc1C[C@@]21CC[C@H](OC)[C@@H](C)C1 [Compound 5]	1.6
[2H]C1([2H])CC2(N=C(N)O1)c1cc(-c3cncc(C#N)c3)ccc1C[C@]21CC[C@@H](OC)CC1 (stereo partly shown) [Compound 84]	4.8
[2H]C1([2H])OC(N)=N[C@]12c1cc(-c3cccnc3F)ccc1C[C@]21CC[C@@H](OC)[C@H](C)C1 [Compound 67]	1.7

[A] CO[C@H]1CC[C@]2(CC1)Cc1ccc(-c3ccnnc3)cc1C21COC(N)=N1 (stereo partly shown) [Compound 62]
[B] [2H]C1([2H])OC(N)=NC12c1cc(-c3cc(Cl)cc(C#N)c3)ccc1C[C@@]21C[C@@H](C)[C@H](OC)[C@@H](C)C1 (stereo partly shown) [Compound 39]
[C] C[C@@H]1CC(C2Cc3ccc(-c4cncnc4)cc3C23COC(N)=N3)C[C@H](C)O1 (stereo partly shown) [Compound 97]
[D] [2H]C1([2H])OC(N)=N[C@]12c1cc(-c3cc(F)cc(C#N)c3)ccc1C[C@]21CC[C@@H](OC)[C@H](C)C1 [Compound 17]
*Q* Arrange the 4 compounds from largest to smallest IC50. Rank them, then answer with their labels in that order.
*A* C, A, B, D

[a] CO[C@H]1CC[C@]2(CC1)Cc1ccc(C#CC(C)C)cc1C21COC(N)=N1 (stereo partly shown) [Compound 12]
[b] [2H]C([2H])([2H])O[C@H]1CC[C@@]2(Cc3ccc(-c4cncc(C#N)c4)cc3[C@]23N=C(N)OC3([2H])[2H])C[C@@H]1C [Compound 105]
[c] CO[C@H]1CC[C@]2(CC1)Cc1ccc(CCC(C)C)cc1C21COC(N)=N1 (stereo partly shown) [Compound 51]
*Q* Arrange the 3 compounds from largest to smallest IC50. Rank them, then answer with their labels in that order.
*A* c, a, b

###

target: Human BACE2 (Homo sapiens); construct: the soluble part of the human β-Secretase2 (AA1-AA473) was cloned using BACE2(1-473)-(AVT)-Fc-pDEST12.2 mammalian expression vector; AVT linker (C); made in house; experiment: TR-FRET assay; type: biochemical; details: enzyme 2.7 μg/mL, substrate 100 nM, pH4.5
pIC50: −log10 of the molar value.
measurement.kind: pIC50

Worked examples follow.
CO[C@H]1CC[C@]2(CC1)Cc1ccc(-c3cncc(C#N)c3)cc1[C@@]21COC(N)=N1 [Compound 38]	6.50
[2H]C1([2H])OC(N)=N[C@]12c1cc(-c3cncc(C(F)(F)F)c3)ccc1C[C@]21CC[C@@H](OC)[C@H](C)C1 [Compound 29]	7.10
[2H]C1([2H])OC(N)=NC12c1cc(-c3cc(C#N)cc(OC)c3)ccc1C[C@]21CC[C@@H](O)[C@H](C)C1 (stereo partly shown) [Compound 58]	6.86
[2H]C([2H])([2H])O[C@@H]1CC[C@]2(Cc3ccc(-c4cnccc4F)cc3[C@]23N=C(N)OC3([2H])[2H])C[C@H]1C [Compound 107]	5.68

[I] CO[C@H]1CC[C@]2(CC1)Cc1ccc(-c3cccnn3)cc1C21COC(N)=N1 (stereo partly shown) [Compound 59]
[II] [2H]C1([2H])OC(N)=N[C@]12c1cc(-c3cncc(Cl)c3)ccc1C[C@]21CC[C@@H](OC)[C@H](C)C1 [Compound 7]
[III] [2H]C1([2H])OC(N)=N[C@]12c1cc(C#CC(C)C)ccc1C[C@@]21CC[C@H](O)[C@@H](C)C1 (racemic) [Compound 11]
*Q* Ordering: ascending pIC50. Rank them, then answer with their labels in that order.
*A* I, III, II

Where these numbers come from: patent US10053453B2
